Could you please report measured IC50 for the items listed next?
# targetEntity: Human immunodeficiency virus type 1 reverse transcriptase (Human immunodeficiency virus 1, UniProt Q72547, K103N)
# assayInfo: Inhibition of HIV1 reverse transcriptase K103N mutant assessed as 32P-labeled GMP incorporation into nascent DNA strand
Give a bare numeral; the unit µM is implied.

Ask | Consider the compound Cc1cc(C)cc(C(=O)c2c(C(C)C)c(=O)[nH]c(=O)n2CC2CCCC2)c1 and give its recorded IC50.
Reply | 15.3

Ask | Give a short answer stating reported IC50 for Cc1cc(C)cc(Oc2c(C(C)C)c(=O)[nH]c(=O)n2Cc2ccccc2)c1 .
Reply | 0.975

Ask | Kindly indicate its recorded IC50. Item: Cc1cc(C)cc(Sc2c(C(C)C)c(=O)[nH]c(=O)n2CC2CCC2)c1
Reply | 182

Ask | // fetch IC50 given entry CCc1c(Oc2cc(C)cc(C)c2)n(CCC2=CCCC2)c(=O)[nH]c1=O
Reply | 247

Ask | Provide measured IC50 value, entry: CCc1c(Oc2cc(C)cc(C)c2)n(CCC2CCCC2)c(=O)[nH]c1=O
Reply | 6.4
